// reported melting point for each item listed
Peptide text beside a SMILES is read from it. * marks the point of attachment. Tos = Cc1ccc(S(=O)(=O)*)cc1; Cam = NC(=O)C*

Here's what some known entries look like.
INSERT INTO results (molecule, assay_result) VALUES
  ('Cc1ccc(S(=O)(=O)N2CCC[C@H]2C(=O)N[C@@H](Cc2ccc(OCCN3CCCCC3)cc2)C(=O)O)cc1', '102 to 106 °C'),
  ('Cc1ccc(S(=O)(=O)N2CCC[C@H]2C(=O)N[C@@H](Cc2ccc(OCCN(C(C)C)C(C)C)cc2)C(=O)O)cc1', '121 to 124 °C');

With those in mind, consider the next molecule.
Quick check: melting point of Cc1ccc(S(=O)(=O)N2CCC[C@H]2C(=O)N[C@@H](Cc2ccc(OCC(N)=O)cc2)C(=O)O)cc1 [Example 58] (Tos-Pro-Tyr(Cam)-OH) ?
195 to 196 °C

Origin of values: patent US6492421B1
